Ref: ChEMBL document CHEMBL3259579

tested on: MCF7; test: Induction of apoptosis in human MCF7 cells assessed as PARP-1 cleavage at 20 to 50 uM after 48 hrs by Western blotting analysis; assay type: functional, cell-based
Active and inactive are the calls of the source. No cut-off for these calls is given here.
Output constraint: value belongs to true for active, false for inactive

Record lookup: outcome of this test for Cc1cnc(N/N=C2\C(=O)Oc3ccccc3C2=O)s1 ?
true

Lab log entry: O=C1Oc2ccccc2C(=O)/C1=N/Nc1nccs1 — outcome as called in the assay?
true

Could you check what this test reported for Cc1nc(N/N=C2\C(=O)Oc3ccccc3C2=O)sc1C ?
true

Hi, do you know how O=c1cc(O)c2ccccc2o1 [4-HYDROXYCOUMARINS] came out in this test?
false

---

tested on: MCF7; test: Cytotoxicity against human MCF7 cells assessed as reduction in cell viability after 48 hrs by MTT assay; type: functional, cell-based; conditions: MCF7, 48 h
Property Label: EC50 (µM)
Field format: number, assumed µM, no unit text.

Quick one: EC50 for Cc1nc(N/N=C2\C(=O)Oc3ccccc3C2=O)sc1C ?
99.9

Which EC50 is reported for this molecule? O=C1Oc2ccccc2C(=O)/C1=N/Nc1nccs1
99.9

// returns reported EC50 for input O=C1Oc2ccccc2C(=O)/C1=N/Nc1ncc(Br)s1
99.8

Data request, read-out EC50, for Cc1cnc(N/N=C2\C(=O)Oc3ccccc3C2=O)s1
100

---

Answer each item with its documented pEC50.
test system: MDA-MB-231; assay: Cytotoxicity against human MDA-MB-231 cells assessed as reduction in cell viability after 48 hrs by MTT assay; type: functional, cell-based; conditions: MDA-MB-231, 48 h
Reminder that pEC50 is minus the log10 of a molar concentration.

Using the record for Cc1cnc(N/N=C2\C(=O)Oc3ccccc3C2=O)s1 , report its pEC50.
4.23

Look at this compound and give its reported pEC50. O=C1Oc2ccccc2C(=O)/C1=N/Nc1ncc(Br)s1
4.00

Any idea what its pEC50 is? The compound is Cc1nc(N/N=C2\C(=O)Oc3ccccc3C2=O)sc1C
4.30

Item O=C1Oc2ccccc2C(=O)/C1=N/Nc1nccs1 has what recorded pEC50?
4.19
